Biological target: gp41 MPER peptide (residues 657 to 669 of gp41 linked to a C-terminal C9 tag)
Assay: SPR
experimental-readout: Kd (nM)
A number alone suffices; assume nM.

[[record]]
binder = "2F5 L100AW-V100DW (antibody, V domains shown) VH: RITLKESGPPLVKPTQTLTLTCSFSGFSLSDFGVGVGWIRQPPGKALEWLAIIYSDDDKRYSPSLNTRLTITKDTSKNQVVLVMTRVSPVDTATYFCAHRRGPTTWFGWPIARGPVNAMDVWGQGITVTISS VL: ALQLTQSPSSLSASVGDRITITCRASQGVTSALAWYRQKPGSPPQLLIYDASSLESGVPSRFSGSGSGTEFTLTISTLRPEDFATYYCQQLHFYPHTFGGGTRVDVRR"
display_unit = "nM"
data_value = 12.8

[[record]]
binder = "2F5 I100FS (antibody, V domains shown) VH: RITLKESGPPLVKPTQTLTLTCSFSGFSLSDFGVGVGWIRQPPGKALEWLAIIYSDDDKRYSPSLNTRLTITKDTSKNQVVLVMTRVSPVDTATYFCAHRRGPTTLFGVPSARGPVNAMDVWGQGITVTISS VL: ALQLTQSPSSLSASVGDRITITCRASQGVTSALAWYRQKPGSPPQLLIYDASSLESGVPSRFSGSGSGTEFTLTISTLRPEDFATYYCQQLHFYPHTFGGGTRVDVRR"
display_unit = "nM"
data_value = 27.3

[[record]]
binder = "2F5 L100AS (antibody, V domains shown) VH: RITLKESGPPLVKPTQTLTLTCSFSGFSLSDFGVGVGWIRQPPGKALEWLAIIYSDDDKRYSPSLNTRLTITKDTSKNQVVLVMTRVSPVDTATYFCAHRRGPTTSFGVPIARGPVNAMDVWGQGITVTISS VL: ALQLTQSPSSLSASVGDRITITCRASQGVTSALAWYRQKPGSPPQLLIYDASSLESGVPSRFSGSGSGTEFTLTISTLRPEDFATYYCQQLHFYPHTFGGGTRVDVRR"
display_unit = "nM"
data_value = 10.8

[[record]]
binder = "2F5 V100DW (antibody, V domains shown) VH: RITLKESGPPLVKPTQTLTLTCSFSGFSLSDFGVGVGWIRQPPGKALEWLAIIYSDDDKRYSPSLNTRLTITKDTSKNQVVLVMTRVSPVDTATYFCAHRRGPTTLFGWPIARGPVNAMDVWGQGITVTISS VL: ALQLTQSPSSLSASVGDRITITCRASQGVTSALAWYRQKPGSPPQLLIYDASSLESGVPSRFSGSGSGTEFTLTISTLRPEDFATYYCQQLHFYPHTFGGGTRVDVRR"
display_unit = "nM"
data_value = 11.9

[[record]]
binder = "2F5 L100AS-F100BS (antibody, V domains shown) VH: RITLKESGPPLVKPTQTLTLTCSFSGFSLSDFGVGVGWIRQPPGKALEWLAIIYSDDDKRYSPSLNTRLTITKDTSKNQVVLVMTRVSPVDTATYFCAHRRGPTTSSGVPIARGPVNAMDVWGQGITVTISS VL: ALQLTQSPSSLSASVGDRITITCRASQGVTSALAWYRQKPGSPPQLLIYDASSLESGVPSRFSGSGSGTEFTLTISTLRPEDFATYYCQQLHFYPHTFGGGTRVDVRR"
display_unit = "nM"
data_value = 10.9


Data request: Quick one: give measured Kd for 2F5 (antibody, V domains shown) VH: RITLKESGPPLVKPTQTLTLTCSFSGFSLSDFGVGVGWIRQPPGKALEWLAIIYSDDDKRYSPSLNTRLTITKDTSKNQVVLVMTRVSPVDTATYFCAHRRGPTTLFGVPIARGPVNAMDVWGQGITVTISS VL: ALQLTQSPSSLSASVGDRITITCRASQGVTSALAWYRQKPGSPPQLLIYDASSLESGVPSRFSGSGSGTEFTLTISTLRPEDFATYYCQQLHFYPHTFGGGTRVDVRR
Data returned: 9.5

Data request: Quick one: give measured Kd for 2F5 V100DS (antibody, V domains shown) VH: RITLKESGPPLVKPTQTLTLTCSFSGFSLSDFGVGVGWIRQPPGKALEWLAIIYSDDDKRYSPSLNTRLTITKDTSKNQVVLVMTRVSPVDTATYFCAHRRGPTTLFGSPIARGPVNAMDVWGQGITVTISS VL: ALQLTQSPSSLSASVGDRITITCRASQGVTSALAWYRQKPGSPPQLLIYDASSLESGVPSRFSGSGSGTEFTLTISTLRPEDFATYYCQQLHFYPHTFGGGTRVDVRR
Data returned: 14.3

Data origin: patent US20120244166A1
